Target: Histidine-rich protein PFHRP-II (Plasmodium falciparum)
Sequence (P05227 whole entry): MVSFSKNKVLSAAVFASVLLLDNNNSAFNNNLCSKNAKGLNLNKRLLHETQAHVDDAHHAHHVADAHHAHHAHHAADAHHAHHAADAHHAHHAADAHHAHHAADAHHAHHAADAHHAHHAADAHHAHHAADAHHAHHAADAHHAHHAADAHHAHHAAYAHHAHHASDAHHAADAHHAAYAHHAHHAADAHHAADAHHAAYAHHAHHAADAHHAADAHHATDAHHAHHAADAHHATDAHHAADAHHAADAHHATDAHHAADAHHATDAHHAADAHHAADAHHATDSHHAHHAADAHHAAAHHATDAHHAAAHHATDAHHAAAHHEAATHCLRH
Assay: Inhibition of beta-hematin formation in Plasmodium falciparum
PROPERTY_NAME: IC50 (µM)

>  <COMPOUND>
CCN(CC)CCCC(C)Nc1cc(CCCCCCCCc2cc(NC(C)CCCN(CC)CC)c3ccccc3n2)nc2ccccc12 (stereo not drawn)

>  <UNIT_TEXT>
µM

>  <NUMERIC_RESULT>
97

$$$$
>  <COMPOUND>
CCN(CC)CCCC(C)Nc1cc(CCCCCCCCCCCCc2cc(NC(C)CCCN(CC)CC)c3ccccc3n2)nc2ccccc12 (stereo not drawn)

>  <UNIT_TEXT>
µM

>  <NUMERIC_RESULT>
86

$$$$
>  <COMPOUND>
CCN(CC)CCCC(C)Nc1cc(CCCCCCCCCCc2cc(NC(C)CCCN(CC)CC)c3ccccc3n2)nc2ccccc12 (stereo not drawn)

>  <UNIT_TEXT>
µM

>  <NUMERIC_RESULT>
94

$$$$
